system: NCI-H522; experiment: NCI tumour cell line growth inhibition, 48 h
The source made the active and inactive calls. No stated cut-off is given here; in the data, active = GI50 up to about 1.1 µM and inactive = higher.
Assign a class; possible classes are 1 (yes) for active, 0 (no) for inactive

Ask | Could you check what this test reported for CC(=O)O[C@H]1CC[C@@]2(C)C(=CC[C@@H]3[C@@H]2CC[C@]2(C)C(=N/O)/C(=C/c4ccc([N+](=O)[O-])cc4)C[C@@H]32)C1 ?
Reply | 0 (no)

Ask | Could you check what this test reported for CC12CCC(C(=O)OC1=O)C2(C)C (stereo unspecified) ?
Reply | 0 (no)

Ask | Could you check what this test reported for C=C(C)C(=O)OC1CC2(C)OC2CC(OC(C)=O)/C(C)=C/C2OC(=O)C(=C)C21 (stereo unspecified) ?
Reply | 1 (yes)

Ask | Could you check what this test reported for O=[N+]([O-])c1ccc(/C=C(/c2ccc([N+](=O)[O-])o2)S(=O)(=O)c2ccccc2)o1 ?
Reply | 0 (no)

Ask | Could you check what this test reported for O=Cc1cc(O)c(O)c(/C=N/n2c3ccccc3c3ccccc32)c1 ?
Reply | 0 (no)

Ask | Could you check what this test reported for O=C(N/N=C(\C1=Nc2ccc(Cl)cc2NC1O)C(O)/C=C/c1ccccc1)c1ccncc1 (stereo unspecified) ?
Reply | 0 (no)

Ask | Could you check what this test reported for CCCc1c(O)nc(Nc2nc3ccccc3[nH]2)[nH]c1=O ?
Reply | 0 (no)

Ask | Could you check what this test reported for COc1ccc(OC2OC(CO)C(OCc3ccccc3)C(OCc3ccccc3)C2OCc2ccccc2)cc1 (stereo unspecified) ?
Reply | 0 (no)

Ask | Could you check what this test reported for Cc1ccc(C)c(N2C/C(=N\NC(=O)CC#N)C(c3nc4ccccc4s3)C(=O)C2=O)c1 (stereo unspecified) ?
Reply | 0 (no)

Ask | Could you check what this test reported for COc1ccc(-c2cc(-c3ccccc3)nc(N)n2)c(O)c1 ?
Reply | 0 (no)

Ask | Could you check what this test reported for Cc1sc2c(c1C)C(=O)c1cccn1-2 ?
Reply | 0 (no)

---

tested on: M14; test: NCI tumour cell line growth inhibition, 48 h
The source made the active and inactive calls. Cut-off read from the data, not from the text of the source: active = GI50 up to about 1.1 µM and inactive = higher. Residues, ends and D or L forms follow the SMILES beside them.
Assign a class; possible classes are yes for active, no for inactive

Ask | Could you check what this test reported for CCN(CC)c1ccc(/C=C(\C#N)c2nc(N)nc(N3N=C(C)CC3(C)C)n2)cc1 ?
Reply | no

Ask | Could you check what this test reported for O=C(NC(Nc1ccc(F)cc1)(C(F)(F)F)C(F)(F)F)C(C(F)(F)F)C(F)(F)F ?
Reply | yes

Ask | Could you check what this test reported for C/C(=N\NC(N)=S)c1ccc2c(c1)Sc1ccccc1O2 ?
Reply | no

Ask | Could you check what this test reported for CCC(C)C(NC(=O)C(CC(C)C)NC(=O)CNC(=O)C(NC(=O)C1CCCN1C(=O)C(CC(C)C)NC(=O)C(N)Cc1ccccc1)C(C)CC)C(=O)NC(CC(C)C)C(N)=O (stereo unspecified) (H-FLPIGLIL-NH2; configuration not given here) ?
Reply | no

Ask | Could you check what this test reported for COc1ccc2c3c1OC1C34CCN(C)C(C2)C4=CC(I)C1(OC)OC (stereo unspecified) ?
Reply | no

Ask | Could you check what this test reported for CCCCCCCCCCCCCCCCCCOCC(O)COP(=O)(O)OCC1OC(n2cc(F)c(=O)[nH]c2=O)CC1O (stereo unspecified) ?
Reply | no

Ask | Could you check what this test reported for CC1=C(N2CC2)C(=O)C(CO)=C(N2CC2)C1=O ?
Reply | yes

Ask | Could you check what this test reported for C[Si](C)(C)[C@@]1([Se]c2ccccc2)CC[C@@H]1C(=O)c1ccccc1 ?
Reply | no

Ask | Could you check what this test reported for CC1(C)OC(C(=O)Nc2cc3c4ccccc4ccc3c3ccccc23)C(C(=O)N2CCCCC2)O1 (stereo unspecified) ?
Reply | no

Ask | Could you check what this test reported for CC(O)(c1ccccc1)c1nccc2ccccc12 (stereo unspecified) ?
Reply | no

Ask | Could you check what this test reported for CCOC(=O)CNC(=O)CNC(=O)CNC(=O)CNNc1c(OCc2ccccc2)c(=O)c1=O ?
Reply | no
